Origin of measurements: ChEMBL document CHEMBL1268849

# assaySummary: Metabolic stability in guinea pig liver microsomes after 20 mins
# Assay type: ADME, Cavia porcellus, Microsome
# conditionSet: read-out: Stability
measurementKind: remaining at 20 min (%)
# unit: % | format: bare number

The compound listed as COCCn1cc(C(=O)N2CCC(c3cc(CN)ccc3F)CC2)c2c(C(=O)N(C)C)cccc21.Cl shows remaining at 20 min equal to 69

----------
# assaySummary: Inhibition of human tryptase-beta using chromogenic substrate S-2366 after 30 mins by spectrophotometry
measurementKind: pKi
pKi field: float, defined as -log10 of concentration (mol/L).

smilesRecord	pKi
COCCn1cc(C(=O)N2CCC(c3cc(CN)ccc3F)CC2)c2c(C(=O)N(C)C)cccc21.Cl	7.70

Read the next record carefully.
The molecule listed as COCCn1cc(C(=O)N2CCC(c3cc(CN)ccc3F)CC2)c2ccccc21 shows pKi equal to 7.27
